Please provide measured MIC for the entries that follow.
System: Escherichia coli
measurement-description: Antibacterial activity against Escherichia coli MTCC 443 assessed as growth inhibition after 24 hr by NCCLS broth microdilution method
Type: functional
condition-notes: MTCC 443, 24 h
Could you give me the number in µg/mL? Just the number is fine.

Reported MIC of Cc1ccc2nc(Cl)c(C3CC(c4ccccc4)=NN3C3=NC(=O)CS3)cc2c1 (stereo not given) : 500

Reported MIC of Cc1ccc2nc(Cl)c(C3CC(c4ccc(Cl)cc4)=NN3C3=NC(=O)CS3)cc2c1 (stereo not given) : 250

Reported MIC of Cc1ccc2nc(Cl)c(C3CC(c4ccccc4Cl)=NN3C3=NC(=O)CS3)cc2c1 (stereo not given) : 50

Reported MIC of Cc1ccc2nc(Cl)c(C3CC(c4ccc(O)cc4)=NN3C3=NC(=O)CS3)cc2c1 (stereo not given) : 500

Reported MIC of Cc1ccc2nc(Cl)c(C3CC(c4ccccc4F)=NN3C3=NC(=O)CS3)cc2c1 (stereo not given) : 25

Reported MIC of Cc1ccc2nc(Cl)c(C3CC(c4cccc(F)c4)=NN3C3=NC(=O)CS3)cc2c1 (stereo not given) : 500

Reported MIC of Cc1ccc2nc(Cl)c(C3CC(c4ccccc4[N+](=O)[O-])=NN3C3=NC(=O)CS3)cc2c1 (stereo not given) : 25

Reported MIC of Cc1ccc2nc(Cl)c(C3CC(c4cccc([N+](=O)[O-])c4)=NN3C3=NC(=O)CS3)cc2c1 (stereo not given) : 250

Reported MIC of CC1(C)S[C@@H]2[C@H](NC(=O)[C@H](N)c3ccccc3)C(=O)N2[C@H]1C(=O)O : 100

Reported MIC of Cc1ccc2nc(Cl)c(C3CC(c4ccc([N+](=O)[O-])cc4)=NN3C3=NC(=O)CS3)cc2c1 (stereo not given) : 50
